melting point values for the compounds below.

- COMPOUND: "O=C(Nc1ccccc1)O[C@@H]1CN=C(c2cccs2)O[C@H]1c1ccccc1 (racemic)"
  melting point: "98 °C"
- COMPOUND: "O=c1[nH]ncc2[nH]c(-c3ccc(OC(F)F)c(OC4CC4)c3)c(Cc3ccc(F)cc3)c12"
  melting point: "193 to 195 °C"

Qu. # melting point lookup, item "CCC(CC)Nc1c([N+](=O)[O-])cc(C)c(COC(=O)COc2ccc(Cl)cc2Cl)c1[N+](=O)[O-]"
Ans. 103 to 106 °C

Qu. # repeat for COc1ccc(C(=O)Nc2ccc(CN3C(=O)[C@H]4CCC[C@H]4N(C(=O)CN4C(=O)c5ccccc5C4=O)c4ccccc43)cc2)cc1 (relative stereo)
Ans. 170 to 173 °C

Qu. # repeat for "O=C(O)c1ccc(NCCC(c2ccc(Cl)cc2)c2ccc(Cl)cc2)cc1"
Ans. 213 to 215 °C

Qu. # repeat for OCCc1cc(C(O)CNCCCCCOCCCCc2ccccc2)ccc1O (configuration not stated)
Ans. 65 to 67 °C

Qu. # repeat for "CC(=CC1=NCCC1)N(C)C1CCCCC1"
Ans. 152 to 153 °C

---

melting point values for the compounds below.

Recorded results for 7 compounds are shown here.
- COMPOUND: "COC(=O)C1CC(C(=O)OC)NC(=O)N1 (stereo not drawn)"
  melting point: "178 to 179 °C"
- COMPOUND: "O=C1CCC(=O)N1Sc1ccccc1"
  melting point: "110 to 112 °C"
- COMPOUND: "O=C1NCCC1=Cc1ccccc1OCC(O)CN1CCC(c2ccc3c(c2)CCCC3)CC1 (stereo not drawn)"
  melting point: "157 to 159 °C"
- COMPOUND: "Cc1csc(-c2sc(Br)cc2-c2ccc(F)cc2)c1"
  melting point: "113 to 116 °C"
- COMPOUND: "O=C(NC1CN2CCC1CC2)c1cccc2nc(-c3ccccc3)oc12 (stereo not drawn)"
  melting point: "179 to 180 °C"
- COMPOUND: "CCc1nn2ccc3oc(C)cc3c2c1CCNC(C)=O"
  melting point: "128 to 129 °C"
- COMPOUND: "Nc1ccc(-c2n[nH]c(-c3ccncc3)n2)cc1"
  melting point: "251 to 252 °C"

Read the next record carefully.
Qu. # melting point lookup, item "O=C(O)Cc1c(Cl)cnc2c(NC(=O)c3c(Cl)cccc3Cl)cccc12"
Ans. 257 to 259 °C

---

TEST_READOUT: melting point

Recorded results for 8 compounds are shown here.
- COMPOUND: "CCOC(=O)COc1c(OC)cc(Cl)c2c1CN1CCc3cc(OC)c(O)cc3C1C2 (single isomer, unassigned; (-))"
  melting point: "132 °C"
- COMPOUND: "CC(C)(C)OC(=O)N[C@H](CO)C(=O)OC(c1ccccc1)c1ccccc1"
  melting point: "116 to 117 °C"
- COMPOUND: "OC(CCN1CCN(c2ccccc2)CC1)COc1cccc(C(F)(F)F)c1 (centres undefined)"
  melting point: "73 to 74 °C"
- COMPOUND: "Clc1c(CBr)ccc2cc(CBr)ccc12"
  melting point: "127 to 129 °C"
- COMPOUND: "O=C(Oc1ccc(Cl)cn1)c1cc2cc([N+](=O)[O-])ccc2oc1=O"
  melting point: "287 to 289 °C"
- COMPOUND: "CC1=C(OS(=O)(=O)c2ccc(C)cc2)C(=O)C(C)O1 (centres undefined)"
  melting point: "70 to 72 °C"
- COMPOUND: "CC(CC(C)(C)O)=NO"
  melting point: "159 to 161 °C"
- COMPOUND: "CCCCN(CCCC)C(=N)c1ccc(-c2ccc([N+](=O)[O-])cc2)o1"
  melting point: "100 to 101 °C"

Qu. # melting point lookup, item "CC(C)=CCc1c(O)n2c3c(nc2n(Cc2ccccc2)c1=O)N(C)CN(C)C3=O"
Ans. 153 to 154 °C

Qu. # repeat for N#CC1CC(c2c(F)cccc2F)=NC1c1ccc(-c2ccc(OC(F)(F)F)cc2)cc1 (centres undefined)
Ans. 145 °C

Qu. # repeat for "Cn1c(-c2cnc(-c3ccccc3)nc2)cnc1-c1ccccc1"
Ans. 211 °C

Qu. # repeat for O=c1[nH]c(=O)n(C2CC(F)C(CO)O2)cc1C(Cl)=CI (centres undefined)
Ans. 87 °C

Qu. # repeat for "O=C(NCc1ccccc1Cl)c1cccnc1OCc1cccnc1"
Ans. 91 to 93 °C
